The reported measurements were obtained from PubChem BioAssay (NCI).

Overview of reported TGI across a group of compounds:
System: K-562 leukemia
assayDetails: NCI tumour cell line growth inhibition, 48 h

Param readout = TGI; param system = K-562 leukemia; param query = CCCCSc1nc(NCCc2c[nH]c3ccccc23)c(C#N)c(-c2ccccc2)n1 ; response: value > 100 µM

Could you share what TGI was measured for Fc1ccccc1CNc1nc(SCCN2CCOCC2)nc2c1cnn2CC(Cl)c1ccc(Br)cc1 (centres undefined) , tested on K-562 leukemia? > 100 µM

# get_value(readout= TGI, system= K-562 leukemia) for O=Cc1cncc(-c2ccc3ncnc(N4CCc5cc(F)c(Cl)cc54)c3c2)c1 > 100 µM

---
Give the reported TGI for CN(C)CCn1c2ccccc2c2nc3ccc([N+](=O)[O-])cc3nc21 (system: K-562 leukemia). 11.3 µM
